meta.source: patent EP2272817A1

Biological target: recombinant human PAI-1 (Homo sapiens, UniProt P05121)
Sequence (P05121 24-402): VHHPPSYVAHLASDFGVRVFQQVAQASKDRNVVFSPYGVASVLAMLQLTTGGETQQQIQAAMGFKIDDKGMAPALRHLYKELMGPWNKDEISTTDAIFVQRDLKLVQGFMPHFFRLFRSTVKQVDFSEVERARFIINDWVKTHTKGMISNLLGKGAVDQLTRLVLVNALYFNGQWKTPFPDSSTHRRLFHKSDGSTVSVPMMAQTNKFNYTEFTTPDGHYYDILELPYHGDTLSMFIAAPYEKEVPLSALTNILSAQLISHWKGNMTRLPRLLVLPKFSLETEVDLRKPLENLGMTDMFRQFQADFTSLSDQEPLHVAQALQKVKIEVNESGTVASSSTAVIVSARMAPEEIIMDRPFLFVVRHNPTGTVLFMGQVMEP
Assay: biochemical
Conditions: read-out: Inhibition Rate of PAI-1 Activity (%)
Here the recorded inhibition at 25 µM is given for each entry.

| Compound structure | inhibition at 25 µM (%) |
| --- | --- |
| CC(C)(C)c1ccc(Oc2cc(-c3ccc(OC(F)(F)F)cc3)ccc2/C=C/C(=O)O)cc1 | 90 |
| CC(C)(C)c1ccc(CN(C(=O)C(=O)O)c2ccc(-c3ccc(OC(F)(F)F)cc3)cc2OC(F)(F)F)cc1 | 90 |
| CC(C)(C)c1ccc(CN(C(=O)C(=O)O)c2ccc(-c3cccc(OC(F)(F)F)c3)cc2)cc1 | 92 |

----------
Molecular target: recombinant human PAI-1 (Homo sapiens)
Assay: biochemical
Conditions: read-out: Inhibition Rate of PAI-1 Activity (%)

| Compound structure | inhibition at 5 µM |
| --- | --- |
| CC(C)(C)c1ccc(-c2ccc(N(Cc3cccc(OC(F)(F)F)c3)C(=O)C(=O)O)cc2)cc1 | 69% |
| O=C(O)CCc1cc(-c2ccc(OC(F)(F)F)cc2)ccc1OCCCc1ccccc1 | 42% |
| CC(C)(C)c1ccc(CN(C(=O)C(=O)O)c2ccc(C(F)(F)F)cc2-c2ccc(OC(F)(F)F)cc2)cc1 | 59% |
| CC(C)(C)c1ccc(CN(C(=O)C(=O)O)c2ccc(N3CCCCC3=O)c(-c3ccc(OC(F)(F)F)cc3)c2)cc1 | 33% |
| CCCCc1ccc(-c2ccc(N(Cc3ccc(C(C)(C)C)cc3)C(=O)C(=O)O)cc2)cc1 | 40% |

----------
Target: recombinant human PAI-1 (Homo sapiens);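 note: PAI-1 preincubated with compound, then two-chain tPA added, residual tPA activity read with fluorogenic Pyr-Gly-Arg-MCA substrate after 30 min at room temperature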
Test: biochemical
Conditions: read-out: Inhibition Rate of PAI-1 Activity (%)
Known inhibition at 25 µM of a selection of compounds

| Compound | System tested | inhibition at 25 µM |
| --- | --- | --- |
| Cc1ccc(CN(C(=O)C(=O)O)c2ccc(-c3ccc(OC(F)(F)F)cc3)cc2)cc1 | recombinant human PAI-1 (Homo sapiens) | 22% |
| Cc1cc(N(Cc2ccc(C(C)(C)C)cc2)C(=O)C(=O)O)ccc1-c1ccc(OC(F)(F)F)cc1 | recombinant human PAI-1 (Homo sapiens) | 85% |
| CC(C)(C)c1ccc(CN(C(=O)C(=O)O)c2ccc(N3CCCCC3=O)c(-c3ccc(OC(F)(F)F)cc3)c2)cc1 | recombinant human PAI-1 (Homo sapiens) | 86% |
| O=C(O)CCc1cc(-c2ccc(OC(F)(F)F)cc2)ccc1OCCCc1ccccc1 | recombinant human PAI-1 (Homo sapiens) | > 99% |
| O=C(O)/C=C/c1c(Oc2ccc(OC(F)(F)F)cc2)cccc1Oc1ccc(OC(F)(F)F)cc1 | recombinant human PAI-1 (Homo sapiens) | 53% |
| CC(C)(C)c1ccc(-c2ccc(N(Cc3cccc(OC(F)(F)F)c3)C(=O)C(=O)O)cc2)cc1 | recombinant human PAI-1 (Homo sapiens) | 97% |
| CC(C)(C)c1ccc(COc2c(/C=C/C(=O)O)cccc2-c2ccc(OC(F)(F)F)cc2)cc1 | recombinant human PAI-1 (Homo sapiens) | 96% |
| CC(C)(C)c1ccc(CN(C(=O)C(=O)O)c2ccc(-c3ccc(Cl)cc3)cc2)cc1 | recombinant human PAI-1 (Homo sapiens) | 67% |
| CC(C)(C)c1ccc(CN(C(=O)CCC(=O)O)c2ccc(-c3ccc(OC(F)(F)F)cc3)cc2)cc1 | recombinant human PAI-1 (Homo sapiens) | > 99% |
| CC(C)(C)c1ccc(CN(C(=O)C(=O)O)c2ccc(-c3ccc(C(F)(F)F)cc3)cc2)cc1 | recombinant human PAI-1 (Homo sapiens) | 74% |
| CCCCCCN(C(=O)C(=O)O)c1ccc(Oc2ccc(OC(F)(F)F)cc2)cc1 | recombinant human PAI-1 (Homo sapiens) | 34% |
| COc1cc(-c2ccc(OC(F)(F)F)cc2)cc(/C=C/C(=O)O)c1OCc1ccc(C(C)(C)C)cc1 | recombinant human PAI-1 (Homo sapiens) | 70% |
| CCCOc1ccc(N(CCCCc2ccccc2)C(=O)C(=O)O)cc1-c1ccc(OC(F)(F)F)cc1 | recombinant human PAI-1 (Homo sapiens) | 95% |
| CC(C)(C)c1ccc(-c2ccc(N(Cc3ccc(C(F)(F)F)cc3)C(=O)C(=O)O)cc2)cc1 | recombinant human PAI-1 (Homo sapiens) | 98% |
| CC(C)(C)c1ccc(CN(C(=O)C(=O)O)c2cccc(OCc3ccc(OC(F)(F)F)cc3)c2)cc1 | recombinant human PAI-1 (Homo sapiens) | 92% |
| CC(C)(C)c1ccc(CN(C(=O)C(=O)O)c2ccc(N3CCOCC3)c(-c3ccc(OC(F)(F)F)cc3)c2)cc1 | recombinant human PAI-1 (Homo sapiens) | 84% |
| CC(C)(C)c1ccc(COc2ccc(OCc3ccc(OC(F)(F)F)cc3)cc2CCC(=O)O)cc1 | recombinant human PAI-1 (Homo sapiens) | 96% |
| CN(c1ccc(OC(F)(F)F)cc1)c1ccc(OCc2ccc(C(C)(C)C)cc2)c(CCC(=O)O)c1 | recombinant human PAI-1 (Homo sapiens) | 98% |
| CCCOc1ccc(-c2ccc(OC(F)(F)F)cc2)cc1N(CCCc1ccccc1)C(=O)C(=O)O | recombinant human PAI-1 (Homo sapiens) | 96% |
| COc1ccc(-c2ccc(OC(F)(F)F)cc2)cc1N(Cc1ccc(C(C)(C)C)cc1)C(=O)C(=O)O | recombinant human PAI-1 (Homo sapiens) | 89% |
| CC(C)(C)c1ccc(CN(C(=O)C(=O)O)c2ccccc2Sc2ccc(OC(F)(F)F)cc2)cc1 | recombinant human PAI-1 (Homo sapiens) | 86% |
| Cc1ccc(N(Cc2ccc(C(C)(C)C)cc2)C(=O)C(=O)O)cc1Oc1ccc(OC(F)(F)F)cc1 | recombinant human PAI-1 (Homo sapiens) | 88% |
| Cc1c(-c2ccc(OC(F)(F)F)cc2)cccc1N(Cc1ccc(C(C)(C)C)cc1)C(=O)C(=O)O | recombinant human PAI-1 (Homo sapiens) | 91% |
| CCC(Oc1ccc(-c2ccc(OC(F)(F)F)cc2)cc1Oc1ccc(C(C)(C)C)cc1)C(=O)O (stereo not shown) | recombinant human PAI-1 (Homo sapiens) | 95% |
| CCCOc1ccc(-c2ccc(OC(F)(F)F)cc2)cc1N(CCCCc1ccccc1)C(=O)C(=O)O | recombinant human PAI-1 (Homo sapiens) | 95% |
